- System: Carrageenin edema in rat's paw
- assay_remarks: Carrageenin Edema Test in Rat's Paw (anti-inflammatory activity, Table 1)
- Assay type: in vivo
- applied_conditions: 100 mg/kg oral, hydrochloride, rat
endpoint: inhibition in vivo at 100 mg/kg (%)

• Nc1nn(CCCN2CCC(Cl)CC2)c2ccc(O)cc12 = 64
• CCN(CC)CCCNc1nn(CCCN(CC)CC)c2c(I)cccc12 = 29
• Clc1ccc2[nH]nc(NCCCN3CCCCC3)c2c1 = 47
• CC(CCn1nc(NCCCN2CCCCC2)c2cc(Cl)ccc21)N1CCCCC1 (stereo not drawn) = 29
• CCN(CC)C(CCn1nc(N)c2cc(O)ccc21)CC(C)C (stereo not drawn) = 47
• CC(CCNc1nn(CCCN2CCCCC2)c2ccc(Cl)cc12)N1CCCCC1 (stereo not drawn) = 29
• CC(CCn1nc(N)c2cc(Cl)ccc21)N(C)C (stereo not drawn) = 37
• Nc1nn(CCCN2CCOCC2)c2ccc(Cl)cc12 = 46
• c1ccc2c(c1)c(NCCCN1CCOCC1)nn2CCCN1CCCCC1 = 39
• CCN(CC)CCCNc1nn(CCCN2CCOCC2)c2ccc(O)cc12 = 30
• Clc1ccc2c(c1)c(NCCCN1CCCCCC1)nn2CCCN1CCCC1 = 29
• CC1CCCC(C)N1CCCNc1nn(CCCN2CCOCC2)c2ccccc12 (stereo not drawn) = 32
• CCN(CC)CCCNc1n[nH]c2cc(Cl)ccc12 = 58
• CC1CCCC(C)N1CCCn1nc(N)c2cc(O)ccc21 (stereo not drawn) = 31
• CCCCN(CCCC)CCCn1nc(NCCCN2CCOCC2)c2ccccc21 = 41
• Clc1ccc2c(c1)c(NCCCCCCN1CCCCC1)nn2CCCN1CCCCC1 = 22
• CC(CCn1nc(NCCC(C)N2CCCCC2)c2cc(Cl)ccc21)N(C)C (stereo not drawn) = 28
• CC(CCNc1n[nH]c2ccccc12)N1CCOCC1 (stereo not drawn) = 51
• CCN(CC)CCCNc1nn(CCCN(CC)CC)c2ccc(I)cc12 = 27
• CCN(CC)CCCNc1nn(CCC(C)N(C)C)c2ccc(Cl)cc12 (stereo not drawn) = 30
• CC(CCNc1n[nH]c2ccc(O)cc12)N1CCCCC1 (stereo not drawn) = 46

###

# maps each entry to its LD50
- assay_remarks: in vivo
- applied_conditions: mouse, ip, intraperitoneal, hydrochloride, male ddy mice
endpoint: LD50 (mg/kg)

• CCCCN(CCCC)CCCn1nc(N)c2cc(O)ccc21 = 255
• CC(CCn1nc(NCCCN2CCCCC2)c2cc(Cl)ccc21)N(C)C (stereo not shown) = 387
• Clc1ccc2c(c1)c(NCCCCCCN1CCCCC1)nn2CCCN1CCCCC1 = 255
• CC(CCn1nc(NCCCN2CCCCC2)c2cc(Cl)ccc21)N1CCCCC1 (stereo not shown) = 231
• CCCCN(CCCC)CCCNc1nn(CCCN(CC)CC)c2ccc(O)cc12 = 170
• CCN(CC)C(CCNc1nn(CCC(C)N(C)C)c2ccc(O)cc12)CC(C)C (stereo not shown) = 340
• CCN(CC)CCCNc1nn(CCCN(CC)CC)c2ccc(N)cc12 = 191
• Nc1nn(CCCN2CCCCC2)c2ccc(O)cc12 = 227
• Nc1nn(CCCN2CCCC2)c2ccc(Cl)cc12 = 311
• CCN(CC)CCCNc1nn(CCCN(CC)CC)c2c(Cl)cccc12 = 211
